Origin of values: ChEMBL document CHEMBL1138586

pIC50, UniProtKB P00742, per-entry values.
Sequence (P00742 41-179 limits assumed): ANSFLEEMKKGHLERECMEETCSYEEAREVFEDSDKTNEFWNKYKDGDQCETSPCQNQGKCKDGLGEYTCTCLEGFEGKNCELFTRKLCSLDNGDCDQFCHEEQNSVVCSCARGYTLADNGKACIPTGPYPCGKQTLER
Sequence (P00742 235-488 limits assumed): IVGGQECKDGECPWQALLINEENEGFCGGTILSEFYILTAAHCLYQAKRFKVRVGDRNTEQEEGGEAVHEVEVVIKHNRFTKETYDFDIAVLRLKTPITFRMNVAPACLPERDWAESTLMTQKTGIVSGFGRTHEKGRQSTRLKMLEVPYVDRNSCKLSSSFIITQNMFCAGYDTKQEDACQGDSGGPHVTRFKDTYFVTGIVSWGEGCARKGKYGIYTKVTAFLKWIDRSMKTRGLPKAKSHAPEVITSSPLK
Numbers only, as −log10 of the molar value.

Worked set:
[[record]]
chemical_structure = "COc1cc(C(=O)Nc2ccc(Cl)cc2C(=O)Nc2ccc(Cl)cn2)ccc1C(=N)N(C)C"
meas_value = 8.15

[[record]]
chemical_structure = "CN(C)C(=N)c1ccc(C(=O)Nc2ccc(F)cc2C(=O)Nc2ccc(Cl)cn2)cc1"
meas_value = 8.85

[[record]]
chemical_structure = "N=C(c1ccc(C(=O)Nc2ccc(Cl)cc2C(=O)Nc2ccc(Cl)cn2)cc1)N1CCCC1"
meas_value = 8.70


Consider the record given below.
What measured pIC50 goes with "CN(C)C(=N)c1ccc(C(=O)Nc2ccc(Cl)cc2C(=O)Nc2ccc(Cl)cn2)c(N2CCCC2)c1" ?
8.70
